biological target: IL17A (Homo sapiens); test: Surface Plasmon Resonance (SPR) analysis of compound interactions with IL17A; details: SPR binding to IL17A
Sequence (Q16552 24-155): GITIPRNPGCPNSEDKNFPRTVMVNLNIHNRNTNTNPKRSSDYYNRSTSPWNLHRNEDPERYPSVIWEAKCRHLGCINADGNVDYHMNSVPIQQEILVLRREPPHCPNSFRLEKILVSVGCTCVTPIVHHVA
pKd: −log10 of the molar value.
property.label: pKd

Below, 8 molecules whose answers are already recorded.
O=C1CNC(=O)[C@@H](Cc2ccc(NC(=O)[C@H](Cc3ccc(Cl)cc3)NC(=O)Cc3ccccc3)cc2)NC(=O)CC2(CCCC2)CC(=O)OCCCCCN1 [Compound 213]: 6.00 to 7.00
COC(=O)[C@@H]1CCCCNC(=O)CCCCCNC(=O)[C@@H](Cc2ccc(NC(=O)[C@H](Cc3ccccc3F)NC(=O)Cc3ccccc3)cc2)NC(=O)CC2(CCCC2)CC(=O)N1 [Compound 111]: 6.00 to 7.00
CN1CC(=O)NCCCCCNC(=O)CC2(CCCC2)CC(=O)N[C@H](Cc2ccc(NC(=O)[C@H](Cc3ccccc3Cl)NC(=O)Cc3ccccc3)cc2)C1=O [Compound 188]: 6.00 to 7.00
COC(=O)[C@H]1CCCCNC(=O)[C@H](CO)NC(=O)[C@@H](Cc2ccc(NC(=O)[C@H](Cc3ccccc3Cl)NC(=O)c3ccccc3)cc2)NC(=O)CC2(CCCC2)CC(=O)N1 [Compound 148]: 6.00 to 7.00
COC(=O)[C@@H]1CCCCNC(=O)CCCCNC(=O)[C@@H](Cc2ccc(NC(=O)[C@H](Cc3ccccc3F)NC(=O)Cc3ccccc3)cc2)NC(=O)CC2(CCCC2)CC(=O)N1 [Compound 110]: 6.00 to 7.00
O=C1CCCNC(=O)[C@H](Cc2ccc(NC(=O)[C@H](Cc3ccccc3F)NC(=O)Cc3ccccc3)cc2)NC(=O)CC2(CCCC2)CC(=O)N[C@@H](C(=O)O)CCCCN1 [Compound 103]: < 5.00
O=C1CNC(=O)[C@@H](Cc2ccc(NC(=O)[C@H](Cc3ccccc3Cl)NC(=O)Cc3ccccc3)cc2)NC(=O)CC2(CCCC2)CC(=O)N[C@@H](C(=O)O)CCCCN1 [Compound 180]: > 7.00
COC(=O)[C@@H]1CCCCNC(=O)CCCNC(=O)[C@@H](Cc2ccc(NC(=O)[C@H](Cc3ccccc3Cl)NC(=O)c3ccccc3)cc2)NC(=O)CC2(CCCC2)CC(=O)N1 [Compound 113]: 6.00 to 7.00

Given the entry O=C1CNC(=O)[C@@H](Cc2ccc(NC(=O)[C@H](Cc3cccc(Cl)c3)NC(=O)Cc3ccccc3)cc2)NC(=O)CC2(CCCC2)CC(=O)OCCCCCN1 [Compound 212] , report its measured pKd.
6.00 to 7.00

Next molecule: O=C1CNC(=O)[C@@H](Cc2ccc(NC(=O)[C@H](Cc3ccccc3Cl)NC(=O)c3cccnc3)cc2)NC(=O)CC2(CCCC2)CC(=O)NCCCCCN1 [Compound 194]
> 7.00

Next molecule: COC(=O)[C@@H]1CCCCNC(=O)CCCNC(=O)[C@@H](Cc2ccc(NC(=O)[C@H](Cc3ccccc3)NC(=O)Cc3ccc(C(F)(F)F)cc3)cc2)NC(=O)CC2(CCCC2)CC(=O)N1 [Compound 140]
6.00 to 7.00

Next molecule: O=C1CCNC(=O)[C@@H](Cc2ccc(NC(=O)[C@H](Cc3ccccc3Cl)NC(=O)Cc3ccccc3)cc2)NC(=O)CC2(CCCC2)CC(=O)NCCCCCN1 [Compound 160]
> 7.00

###

Catalogue of compounds with associated pIC50
molecular target: recombinant human IL17a (binding to its receptor IL17R) (Homo sapiens, UniProt Q16552); construct: purchased R&D Systems 317-ILB (IL17a); 177-IR (IL17R/Fc); assay: IL-17 competition ELISA I (IL17a coated, IL17R/Fc binding)
pIC50: −log10 of the molar value.

O=C1CNC(=O)[C@@H](Cc2ccc(NC(=O)[C@H](Cc3ccccc3Cl)NC(=O)c3cnccn3)cc2)NC(=O)CC2(CCCC2)CC(=O)NCCCCCN1: 6.00 to 7.00
O=C1CC2(CCCC2)CC(=O)N[C@H](Cc2ccc(NC(=O)[C@H](Cc3ccccc3Cl)NC(=O)Cc3ccccc3)cc2)C(=O)NCC(=O)N[C@H](C(=O)O)CCCCN1: > 7.00
O=C1CC2(CCCC2)CC(=O)N[C@H](Cc2ccc(NC(=O)[C@H](Cc3ccccc3Cl)NC(=O)c3ccc(F)cc3)cc2)C(=O)N[C@@H](Cc2ccccc2)C(=O)NCCCCCN1: 6.00 to 7.00
O=C1CNC(=O)[C@@H](Cc2ccc(NC(=O)[C@H](Cc3ccc(Cl)c(Cl)c3)NC(=O)Cc3ccccc3)cc2)NC(=O)CC2(CCCC2)CC(=O)OCCCCCN1: 5.00 to 6.00
O=C1CNC(=O)[C@@H](Cc2ccc(NC(=O)[C@@H](NC(=O)Cc3ccc(O)cc3)C3CCCCC3)cc2)NC(=O)CC2(CCCC2)CC(=O)NCCCCCN1: > 7.00

Which measured pIC50 belongs to "O=C1CNC(=O)[C@@H](Cc2ccc(NC(=O)[C@H](Cc3ccccc3Cl)NC(=O)Cc3ccc(F)cc3)cc2)NC(=O)CC2(CCCC2)CC(=O)NCCCCCN1" , tested on recombinant human IL17a (binding to its receptor IL17R) (Homo sapiens, UniProt Q16552)?
> 7.00

Next compound: "O=C1CNC(=O)[C@@H](Cc2ccc(NC(=O)[C@H](Cc3ccccc3Cl)NC(=O)Cc3ccc(O)cc3)cc2)NC(=O)CC2(CCCC2)CC(=O)N[C@H](C(=O)O)CCCCN1"
> 7.00

Next compound: "O=C1CNC(=O)[C@@H](Cc2ccc(NC(=O)[C@H](Cc3ccccc3Cl)NC(=O)c3cc(F)c(F)c(F)c3)cc2)NC(=O)CC2(CCCC2)CC(=O)NCCCCCN1"
6.00 to 7.00

Next compound: "O=C1CC2(CCCC2)CC(=O)N[C@H](Cc2ccc(NC(=O)[C@H](Cc3ccccc3Cl)NC(=O)Cc3ccc(CO)cc3)cc2)C(=O)NCCCCCCCCCN1"
6.00 to 7.00

Next compound: "O=C1CNC(=O)[C@@H](Cc2ccc(NC(=O)[C@H](Cc3csc4ccccc34)NC(=O)Cc3ccccc3)cc2)NC(=O)CC2(CCCC2)CC(=O)NCCCCCN1"
6.00 to 7.00

Next compound: "O=C1CC2(CCCC2)CC(=O)N[C@H](Cc2ccc(NC(=O)[C@H](Cc3ccccc3Cl)NC(=O)Cc3ccc(O)cc3)cc2)C(=O)N[C@H](Cc2ccccc2)C(=O)NCCCCCN1"
> 7.00

###

Catalogue of compounds with associated IC50
target: biotinylated human IL-17 (binding to IL17R/Fc) (Homo sapiens); construct: 177-IR (IL17R/Fc); experiment: IL-17 competition ELISA II (captured IL17R/Fc, biotinylated IL-17)

Below, 4 compounds whose answers are already recorded.
C[C@H]1NC(=O)[C@@H](Cc2ccc(NC(=O)[C@H](Cc3ccccc3Cl)NC(=O)Cc3cccnc3)cc2)NC(=O)CC2(CCCC2)CC(=O)N(C)CCCCCN(C)C1=O: < 100 nM
O=C1CC2(CCCC2)CC(=O)N[C@H](Cc2ccc(NC(=O)[C@H](Cc3ccccc3Cl)NC(=O)Oc3ccc(F)cc3)cc2)C(=O)NCCOCCOCCN1: < 100 nM
C[C@H]1NC(=O)[C@@H](Cc2ccc(NC(=O)[C@H](Cc3ccccc3Cl)NC(=O)c3ccc(F)cc3)cc2)NC(=O)CC2(CCCC2)CC(=O)N(C)CCCCCN(C)C1=O: < 100 nM
CN1CCNC(=O)CC2(CCCC2)CC(=O)N(C)[C@H](Cc2ccc(NC(=O)[C@H](Cc3ccccc3)N(C)C(=O)c3ccccc3)cc2)C(=O)N2CCC[C@H]2C(=O)NCC1: 1000 to 10000 nM

Turning now to a further record.
Given the entry "NC(=O)CC[C@H]1NC(=O)[C@@H](Cc2ccc(NC(=O)[C@H](Cc3ccccc3Cl)NC(=O)Cc3ccc(F)cc3)cc2)NC(=O)CC2(CCCC2)CC(=O)NCCCCCNC1=O" , report its measured IC50.
< 100 nM

###

Catalogue of compounds with associated IC50
Target: biotinylated human IL-17 (binding to IL17R/Fc) (Homo sapiens, UniProt Q16552)
Construct: 177-IR (IL17R/Fc)
Sequence (Q16552 20-155 limits assumed): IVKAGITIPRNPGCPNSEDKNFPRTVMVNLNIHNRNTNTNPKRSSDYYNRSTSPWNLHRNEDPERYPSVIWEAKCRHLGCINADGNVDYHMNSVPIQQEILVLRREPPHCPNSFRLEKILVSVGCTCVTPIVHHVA
Test: IL-17 competition ELISA II (captured IL17R/Fc, biotinylated IL-17)
Experimental: In this version, a high binding 96-well plate (Costar #9018) was coated with 20 nM of goat anti-human IgG (KPL 01-10-02) in PBS, 100 μL/well, for 30 min at 37° C. followed by 5 min at 4° C. […] Data was processed using BioAssay Enterprise v10.1.4 (CambridgeSoft) software. […] IC50 was calculated using positive ‘no competitor’ control data as an upper limit and blank control as a lower limit in each assay.

Below, 5 compounds whose answers are already recorded.
CN1C(=O)CC2(CCCC2)CC(=O)NCCCCCNC(=O)CNC(=O)[C@H]1Cc1ccc(NC(=O)[C@H](Cc2ccccc2Cl)NC(=O)Cc2ccccc2)cc1 [Compound 413]: < 100 nM
Cc1ccc(C[C@H](NC(=O)C2(c3ccc(F)cc3)CC2)C(=O)Nc2ccc(C[C@H]3NC(=O)CC4(CCCC4)CC(=O)N(C)CCCCCNC(=O)[C@@H](C)NC3=O)cc2)c(C)c1 [Compound 509]: 100 to 1000 nM
O=C1CC2(CCCC2)CC(=O)N[C@H](Cc2ccc(NC(=O)[C@@H](NC(=O)Cc3cccc(O)c3)c3ccccc3)cc2)C(=O)NCCOCCOCCN1 [Compound 481]: 100 to 1000 nM
CN1CCCCCCCCN(C)C(=O)[C@@H](Cc2ccc(N(C)C(=O)[C@H](Cc3ccccc3Cl)N(C)C(=O)c3ccccc3)cc2)N(C)C(=O)CC2(CCCC2)CC1=O [Compound 372]: 100 to 1000 nM
O=C1CC2(CCCC2)CC(=O)N[C@H](Cc2ccc(NC(=O)[C@H](Cc3ccccc3Cl)NC(=O)c3ccc(F)cc3)cc2)C(=O)NCCOCCOCCN1 [Compound 521]: < 100 nM

Given the entry O=C1CNC(=O)[C@@H](Cc2ccc(NC(=O)[C@@H](NC(=O)c3cncc4ccccc34)C3CCCCC3)cc2)NC(=O)CC2(CCCC2)CC(=O)NCCCCCN1 [Compound 450] , report its measured IC50.
< 100 nM

Next compound: O=C1CC2(CCCC2)CC(=O)N[C@H](Cc2ccc(NC(=O)[C@H](Cc3ccccc3Cl)NC(=O)Cc3ccccc3)cc2)C(=O)NCCCCCCCCCN1 [Compound 349]
< 100 nM

Next compound: CN1CCCCCNC(=O)C(Cc2ccc(NC(=O)C(NC(=O)c3cccnc3)C3CCCCC3)cc2)NC(=O)CC2(CCCC2)CC1=O (stereo not shown) [Compound 421]
1000 to 10000 nM

Next compound: CCC(F)(F)C(=O)N[C@H](C(=O)Nc1ccc(C[C@H]2NC(=O)CC3(CCCC3)CC(=O)OCCCCCNC(=O)CNC2=O)cc1)C1CCCCC1 [Compound 677]
100 to 1000 nM

Next compound: C[C@H]1NC(=O)[C@@H](Cc2ccc(NC(=O)[C@H](Cc3ccccc3Cl)NC(=O)Cc3ccc(F)cc3)cc2)NC(=O)CC2(CCCC2)CC(=O)N[C@H](C(=O)O)CCCCNC1=O [Compound 529]
< 100 nM

Next compound: CN1CCCCCNC(=O)CNC(=O)[C@@H](Cc2ccc(NC(=O)[C@@H](NC(=O)Cc3ccccc3)C3CCCCC3)cc2)NC(=O)CC2(CCCC2)CC1=O [Compound 332]
< 100 nM
